- Test system: HOP-92 NSCLC
- protocolDetails: NCI tumour cell line growth inhibition, 48 h
// TGI lookup, one value per entry

Test system HOP-92 NSCLC; read-out TGI; what value for "CC/C=C\C/C=C\C[C@H]1C/C=C2/C(=O)C=C[C@@H]2C/C=C\CCC(=O)O1" ?
10.4 µM

Query CCOC(=O)C1(c2ccccc2)CCCNCC1 (stereo unspecified) next
> 100 µM

Query "O=S(=O)(O)c1ccc(N=Nc2ccc(N=Nc3c(O)c(S(=O)(=O)O)cc4cc(S(=O)(=O)O)ccc34)cc2)cc1" next
> 100 µM

Query COC(=S)OC1CC(n2cnc3c(=O)[nH]cnc32)OC1CO[Si](C)(C)C(C)(C)C (stereo unspecified) next
> 100 µM

---
Test system HOP-92 NSCLC; read-out TGI; what value for CC1=C(O)C(=O)C2C(=O)C1C(C)C2c1ccc(C)cc1 (stereo unspecified) ?
> 100 µM

Query "Cc1oc2c(c1C)S(=O)(=O)C(C#N)=CN2" next
> 100 µM
